growth values for the compounds below.
- Tested on: OVCAR-8 ovarian
- testDescription: NCI-60 one-dose screen, 48 h (100 = growth as untreated, 0 = no growth, -100 = all killed)
- conditionNotes: 10 µM unless noted
This is part of a sample that, as a whole, favours compounds with a hit. Of some 83,000 tested, about 20% had one in any assay. Activity calls are given as the source filed them. Rule for the calls: active = growth percent below 10; inactive = the rest.

Answered cases to consult:
N#CC[C@H](C1CCCC1)n1cc(-c2ncnc3[nH]ccc23)cn1; 64.4% (inactive)
CCN1CCN(c2nc(C)cc(N(CCNc3ccnc4cc(Cl)ccc34)Cc3ccc4c(c3)OCO4)n2)CC1; 16.1% (inactive)
Cn1cc(-c2cnn3c(N)c(Br)c([C@@H]4CCCNC4)nc23)cn1; 50.8% (inactive)
O=C(c1ccccc1)C(c1ccccc1)N1CCOCC1 (stereo not given); 105% (inactive)
O=C(O)c1ccc2c(c1)nc(Nc1cccc(Cl)c1)c1ccncc12; 5.65% (active)
CC(C)Nc1cc(-c2c[nH]c(C(=O)N[C@H](CO)c3cccc(Cl)c3)c2)c(Cl)cn1; 35% (inactive)
C/C(=C(/c1ccc(Cl)cc1)c1ccc(OCCN2CCCCCC2)cc1)c1ccccc1; 89% (inactive)
Cc1cnc(Nc2ccc(OCCN3CCCC3)cc2)nc1Nc1cccc(S(=O)(=O)NC(C)(C)C)c1; 3.89% (active)

Problem: State its growth on OVCAR-8 ovarian: CC(=Nc1ccccc1)C1=C(O)C(Cc2ccccc2)NC1=O (stereo not given)
Solution: -50.4% (active)

Problem: Reported growth for OVCAR-8 ovarian, given COc1ccc(-c2cc3c(oc2=O)-c2ccccc2OC3OC(C)=O)cc1 (stereo not given) ?
Solution: 107% (inactive)
